system: late-stage (stage V) Plasmodium falciparum gametocytes; experiment: Cidal vs static activity assay by qPCR of late-stage gametocyte-specific mRNA (Pf77, ROM3, Pfg377); assay type: cell-based; conditions: drug present only 48 h (T48); from Ct values
parameterMeasured: reduction of mRNA levels after drug removal (T48)

Here are 4 molecules together with their reported answers.
molecule | measuredValue
C[C@H]1[C@@H](O)O[C@@H]2O[C@@]3(C)CC[C@H]4[C@H](C)CC[C@@H]1[C@@]24OO3 [Dihydroartemisinin, reference compound] | less than tenfold
Br.Cc1ccnc(Nc2nc(-c3ccccn3)cs2)c1 | less than tenfold
CC[C@H](C)[C@H](NC(=O)[C@H]([C@@H](C)CC)N(C)C(C)=O)C(=O)N[C@H](C(=O)N[C@@H](CC(C)C)C(=O)[C@@]1(C)CO1)[C@@H](C)O [Epoxomicin, reference compound] | less than tenfold
CC(C)c1ccc(NC(=S)NN=Cc2ccccn2)cc1 | less than tenfold

Now, please, on to the next molecule.
Input line: Look up reduction of mRNA levels after drug removal (T48): C=C(NC(=O)C(=C)NC(=O)c1csc(C2=N[C@@H]3c4csc(n4)[C@H]4NC(=O)c5csc(n5)[C@H]([C@](C)(O)[C@@H](C)O)NC(=O)[C@H]5CSC(=N5)/C(=C/C)NC(=O)[C@H]([C@@H](C)O)NC(=O)c5csc(n5)[C@]3(CC2)NC(=O)[C@H](C)NC(=O)C(=C)NC(=O)[C@H](C)NC(=O)[C@H]([C@@H](C)CC)N[C@@H]2C=Cc3c([C@H](C)O)cc(nc3[C@H]2O)C(=O)O[C@@H]4C)n1)C(N)=O [Thiostrepton, reference compound]
Output line: less than tenfold

Values were extracted from paper PMC4957904.
